Values were extracted from patent US5194437A.

molecular target: 5-HT1A receptors (Rattus norvegicus); assay: Body temperature (hypothermia), agonist and antagonist activity; type: in vivo, male Wistar rats; set-up: from tissue; host or cells: whole animal, male Wistar rat (in vivo); conditions: rat, sc, 1 h; antagonist: inhibition of hypothermia induced by 8-OH-DPAT 0.16 mg/kg s.c.; compound s.c. 60 min before test; read-out: Hypothermia ID50 (95% C.L.)
Sequence (P19327 whole entry): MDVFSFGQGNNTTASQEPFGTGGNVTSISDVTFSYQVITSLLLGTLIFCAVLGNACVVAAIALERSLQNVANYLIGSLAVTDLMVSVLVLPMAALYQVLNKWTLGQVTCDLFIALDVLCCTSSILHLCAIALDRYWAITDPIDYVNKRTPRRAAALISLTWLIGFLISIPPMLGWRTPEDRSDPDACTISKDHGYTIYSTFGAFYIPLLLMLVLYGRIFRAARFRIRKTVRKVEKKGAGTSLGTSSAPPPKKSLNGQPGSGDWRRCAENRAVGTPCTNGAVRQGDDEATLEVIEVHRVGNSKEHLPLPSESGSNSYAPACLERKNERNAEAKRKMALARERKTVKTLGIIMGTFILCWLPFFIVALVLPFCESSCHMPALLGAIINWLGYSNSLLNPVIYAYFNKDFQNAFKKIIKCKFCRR
measurementKind: ED50

Would you please look over these solved cases?
Supply ED50 value. Item: c1ccc2c(c1)CC2CCCN1CCN(c2cccc3c2OCCO3)CC1 (racemic)
0.21 mg/kg

Quote ED50 reported for c1ccc2c(c1)CC2CCN1CCN(c2cccc3c2OCCO3)CC1 (racemic) please.
0.65 mg/kg

Please report ED50 for the following molecule: c1ccc2c(c1)CCC2CCCN1CCN(c2cccc3c2OCCO3)CC1 (racemic)
0.4 mg/kg

More entries:
Please give measured ED50 of the following entry: c1ccc2c(c1)CC(CN1CCN(c3cccc4c3OCCO4)CC1)C2
< 2.5 mg/kg

Return value of ED50 for input c1ccc2c(c1)CCC2CCN1CCN(c2cccc3c2OCCO3)CC1 (racemic) , no commentary.
1.19 mg/kg
